The measurements presented in this section are drawn from PubChem BioAssay AID1963828.

system: 991263-137-R1-J2-PDC complex spheroid viability; experiment: Anticancer human tumor 991263-137-R1-J2-PDC patient-derived colon adenocarcinoma cell line growth inhibition [POLQ]; conditions: second compound 0.316 µM; first compound 10 µM; stronger effect = lower value
Task for the reader: assign each of the following compounds its reported viability, T/C.
One number for each entry, in %.

For each of the items listed, what is its viability, T/C?
1. COc1ccc([C@@H](O)c2cc(-c3ncnc4cc(N5CCOCC5)ccc34)c(F)cc2Cl)nn1 + Cc1cccc(N(C)C(=O)C2C(O)CCN2c2nc(C)cc(C(F)(F)F)c2C#N)c1
2. O=C(Nc1ccc(O)c(NS(=O)(=O)c2ccc(F)cc2)c1)c1ccc(-c2ccccc2)cc1 + Nc1ccc(C#CCN(C(=O)Cc2ncc(C(F)(F)F)cc2C(F)(F)F)c2ccc(F)cc2)nn1
3. COc1cccc2c1C(=O)c1c(O)c3c(c(O)c1C2=O)CC(O)(C(=O)CO)CC3OC1CC(N)C(O)C(C)O1 (stereo not given) + Cc1cccc(N(C)C(=O)C2C(O)CCN2c2nc(C)cc(C(F)(F)F)c2C#N)c1
4. CC1COCCN1c1cc(C2(S(C)(=N)=O)CC2)nc(-c2ccnc3[nH]ccc23)n1 (stereo not given) + COC1C(OC(N)=O)C(O)C(Oc2ccc3c(O)c(NC(=O)c4ccc(O)c(CC=C(C)C)c4)c(=O)oc3c2C)OC1(C)C
5. CCCS(=O)(=O)Nc1ccc(F)c(C(=O)c2c[nH]c3ncc(-c4ccc(Cl)cc4)cc23)c1F + COC1C(OC(N)=O)C(O)C(Oc2ccc3c(O)c(NC(=O)c4ccc(O)c(CC=C(C)C)c4)c(=O)oc3c2C)OC1(C)C
6. Nc1ccn(C2OC(CO)C(O)C2(F)F)c(=O)n1 (stereo not given) + Cc1cccc(N(C)C(=O)C2C(O)CCN2c2nc(C)cc(C(F)(F)F)c2C#N)c1
7. CCc1cc2c(N3CCc4c(cc(Cn5ccnc5)cc4-c4cn(C)nc4C(F)(F)F)C3=O)ccnc2c(OC)n1 + COC1C(OC(N)=O)C(O)C(Oc2ccc3c(O)c(NC(=O)c4ccc(O)c(CC=C(C)C)c4)c(=O)oc3c2C)OC1(C)C
8. COc1cc2cc(C(=O)CCC(=O)O)sc2cc1OC + COC1C(OC(N)=O)C(O)C(Oc2ccc3c(O)c(NC(=O)c4ccc(O)c(CC=C(C)C)c4)c(=O)oc3c2C)OC1(C)C

Reply:
34.9
101
34.1
83.8
108
38.5
99.9
96.8

Below are some compounds; for each one, tell me its viability, T/C.
1. Nc1ccn(C2OC(CO)C(O)C2(F)F)c(=O)n1 (stereo not given) + COC1C(OC(N)=O)C(O)C(Oc2ccc3c(O)c(NC(=O)c4ccc(O)c(CC=C(C)C)c4)c(=O)oc3c2C)OC1(C)C
2. CNCc1ccc(-c2[nH]c3cc(F)cc4c3c2CCNC4=O)cc1 + COC1C(OC(N)=O)C(O)C(Oc2ccc3c(O)c(NC(=O)c4ccc(O)c(CC=C(C)C)c4)c(=O)oc3c2C)OC1(C)C

Reply:
1. 33
2. 98.5

====

System: 991263-137-R1-J2-PDC complex spheroid viability
Experiment: Anticancer human tumor 991263-137-R1-J2-PDC cell line growth inhibition [POLQ];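 further: spheroids exposed to compounds for 7 days before readout; 100% = DMSO vehicle control viability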
Settings: second compound 0.0316 µM; first compound 10 µM; stronger effect = lower value
Protocol: Multicellular complex tumor spheroid response to Polymerase (POL) inhibitors (novobiocin, ART-558, RP6685) in combination with a variety of drugs and investigational agents in selected tumor cell lines The POL inhibitors (novobiocin, ART-558, and RP6685) were evaluated both individually and in combination with standard of care and investigational anticancer small molecules within a complex spheroid model of solid tumors. . […]
Please note: viability, T/C exactly at 80% is NOT MET. Only values below 80% get MET.

compound	label
CC(C)n1c(=O)n(C)c2cnc3cc(F)c(-c4ccc(OCCCN5CCCCC5)nc4)cc3c21 + COC1C(OC(N)=O)C(O)C(Oc2ccc3c(O)c(NC(=O)c4ccc(O)c(CC=C(C)C)c4)c(=O)oc3c2C)OC1(C)C	NOT MET
COc1cccc2c1C(=O)c1c(O)c3c(c(O)c1C2=O)CC(O)(C(=O)CO)CC3OC1CC(N)C(O)C(C)O1 (stereo not drawn) + Nc1ccc(C#CCN(C(=O)Cc2ncc(C(F)(F)F)cc2C(F)(F)F)c2ccc(F)cc2)nn1	MET
O=c1[nH]cc(F)c(=O)[nH]1 + Nc1ccc(C#CCN(C(=O)Cc2ncc(C(F)(F)F)cc2C(F)(F)F)c2ccc(F)cc2)nn1	NOT MET

Task item: viability, T/C strictly < 80% for this compound? CCCS(=O)(=O)Nc1ccc(F)c(C(=O)c2c[nH]c3ncc(-c4ccc(Cl)cc4)cc23)c1F + Cc1cccc(N(C)C(=O)C2C(O)CCN2c2nc(C)cc(C(F)(F)F)c2C#N)c1
Reply: NOT MET

Task item: Lab note: confirm whether the reported viability, T/C for this compound is below 80%, equality not counting. compound: CCc1cc2c(N3CCc4c(cc(Cn5ccnc5)cc4-c4cn(C)nc4C(F)(F)F)C3=O)cc(C)nc2c(OC)n1 + Nc1ccc(C#CCN(C(=O)Cc2ncc(C(F)(F)F)cc2C(F)(F)F)c2ccc(F)cc2)nn1
Reply: NOT MET

Task item: I'd appreciate it if you could check whether O=C(Nc1ccc(O)c(NS(=O)(=O)c2ccc(F)cc2)c1)c1ccc(-c2ccccc2)cc1 + Nc1ccc(C#CCN(C(=O)Cc2ncc(C(F)(F)F)cc2C(F)(F)F)c2ccc(F)cc2)nn1 has viability, T/C smaller than 80%.
Reply: NOT MET

Task item: Given the entry C#Cc1c(F)ccc2cc(O)cc(-c3ncc4c(N5CC6CCC(C5)N6)nc(OCC56CCCN5CC(F)C6)nc4c3F)c12 (stereo not drawn) + Cc1cccc(N(C)C(=O)C2C(O)CCN2c2nc(C)cc(C(F)(F)F)c2C#N)c1 , would its reported viability, T/C be below 80%?
Reply: NOT MET

Task item: Confirm or reject: viability, T/C of Nc1ccn(C2OC(CO)C(O)C2(F)F)c(=O)n1 (stereo not drawn) + COC1C(OC(N)=O)C(O)C(Oc2ccc3c(O)c(NC(=O)c4ccc(O)c(CC=C(C)C)c4)c(=O)oc3c2C)OC1(C)C lies strictly below 80%
Reply: MET
